Where do these numbers come from? They come from ChEMBL document CHEMBL1123582.

Tested on: Porphyromonas gingivalis
protocol: Evaluated for the in vitro minimum bactericidal concentration (MBC) against periopathogenic Bacteroides gingivalis bacteria
Format: functional
experimental readout: log10(MBC) (log10 of the value in µg/mL)

>  <smiles string>
CCCCC(=O)c1ccc(O)c(-c2nc3cc(C(F)(F)F)ccc3[nH]2)c1

>  <recorded measurement>
-0.30

$$$$
>  <smiles string>
CCCCCCC(=O)c1ccc(O)c(-c2nc3cc(C(F)(F)F)ccc3[nH]2)c1

>  <recorded measurement>
-1.30

$$$$
>  <smiles string>
Oc1ccccc1-c1nc2cc(C(F)(F)F)ccc2[nH]1

>  <recorded measurement>
1.70

$$$$
>  <smiles string>
CCCC(=O)c1ccc(O)c(-c2nc3cc(C(F)(F)F)ccc3[nH]2)c1

>  <recorded measurement>
-1.30

$$$$
>  <smiles string>
CN(C)[C@@H]1C(O)=C(C(N)=O)C(=O)[C@@]2(O)C(O)=C3C(=O)c4c(O)cccc4[C@@](C)(O)[C@H]3C[C@@H]12

>  <recorded measurement>
-1.30

$$$$
>  <smiles string>
O=C(Nc1ccc(Br)cc1)c1cc(Br)cc(Br)c1O

>  <recorded measurement>
-1.30

$$$$
>  <smiles string>
Cc1ccc2[nH]c(-c3ccccc3O)nc2c1

>  <recorded measurement>
0.00

$$$$
>  <smiles string>
Oc1c(Br)cc(Br)cc1-c1nc2cc(C(F)(F)F)ccc2[nH]1

>  <recorded measurement>
-1.30

$$$$
>  <smiles string>
CCCCCCCCC(=O)c1ccc(O)c(-c2nc3cc(C(F)(F)F)ccc3[nH]2)c1

>  <recorded measurement>
-1.00

$$$$
>  <smiles string>
CCCCCC(=O)c1ccc(O)c(-c2nc3cc(C(F)(F)F)ccc3[nH]2)c1

>  <recorded measurement>
-1.00

$$$$
>  <smiles string>
CCCCCCCC(=O)c1ccc(O)c(-c2nc3cc(C(F)(F)F)ccc3[nH]2)c1

>  <recorded measurement>
-0.30

$$$$
>  <smiles string>
N=C(NCCCCCCNC(=N)NC(=N)Nc1ccc(Cl)cc1)NC(=N)Nc1ccc(Cl)cc1

>  <recorded measurement>
-1.30

$$$$
>  <smiles string>
Oc1c(Br)cc(Br)cc1-c1nc2cc(Cl)ccc2[nH]1

>  <recorded measurement>
-1.30

$$$$
